- protocol-details: The drug is tested on Z-018 corresponding to pig gut metagenome with ENA study accession number: PRJEB37062 and ENA sample accession number: ERS12561817 for biotransformation under anaerobic condition. The drug concentrations were measured over 9 timepoints collected between 0 and 24 hours of incubation by liquid-chromatography-coupled mass spectrometry (LC–MS); also: call rule not given here
- measurement-conditions: 2 µM

{"columns": ["compound", "Bacterial Biotransformation"],
 "data": [
  ["C#C[C@]1(OC(C)=O)CC[C@H]2[C@@H]3CCC4=CC(=O)CC[C@@H]4[C@H]3CC[C@@]21C [NORETHINDRONE ACETATE]", "Compound metabolized"],
  ["CC(=O)SCC(Cc1ccccc1)C(=O)NCC(=O)OCc1ccccc1 (stereo unspecified)", "Compound metabolized"],
  ["O=C(NC(Cc1cc(=O)[nH]c2ccccc12)C(=O)O)c1ccc(Cl)cc1 (stereo unspecified) [REBAMIPIDE]", "Compound NOT metabolized"],
  ["CC(C)c1c(CN(C)C(C)Cc2ccccc2)n(C)n(-c2ccccc2)c1=O (stereo unspecified)", "Compound NOT metabolized"],
  ["Clc1cccc(Cl)c1N=C1NCCN1", "Compound metabolized"],
  ["C#C[C@]1(OC(C)=O)CC[C@H]2[C@@H]3CCC4=C/C(=N/O)CC[C@@H]4[C@H]3CC[C@@]21CC [NORGESTIMATE]", "Compound NOT metabolized"],
  ["Cc1cc2c(s1)Nc1ccccc1N=C2N1CCN(C)CC1", "Compound NOT metabolized"],
  ["CCN(C(C)=O)c1cccc(-c2ccnc3c(C#N)cnn23)c1", "Compound metabolized"],
  ["CCS(=O)(=O)CCn1c([N+](=O)[O-])cnc1C", "Compound metabolized"],
  ["CC(C)c1nc(N(C)S(C)(=O)=O)nc(-c2ccc(F)cc2)c1/C=C/[C@@H](O)C[C@@H](O)CC(=O)[O-].CC(C)c1nc(N(C)S(C)(=O)=O)nc(-c2ccc(F)cc2)c1/C=C/[C@@H](O)C[C@@H](O)CC(=O)[O-].[Ca+2]", "Compound NOT metabolized"],
  ["CN1[C@@H]2CC[C@H]1C[C@@H](OC(=O)[C@H](CO)c1ccccc1)C2", "Compound NOT metabolized"],
  ["Br.COc1ccc2c(c1)[C@]13CCCC[C@@H]1[C@H](C2)N(C)CC3.O [DEXTROMETHORPHAN HYDROBROMIDE]", "Compound metabolized"],
  ["CC(C)NCC(O)COc1ccc(CC(N)=O)cc1 (stereo unspecified)", "Compound NOT metabolized"],
  ["N#Cc1ccc2[nH]cc(CCCCN3CCN(c4ccc5oc(C(N)=O)cc5c4)CC3)c2c1", "Compound NOT metabolized"],
  ["OCCN(CCO)c1nc(N2CCCCC2)c2nc(N(CCO)CCO)nc(N3CCCCC3)c2n1", "Compound metabolized"],
  ["CC(C)(C)NCC(O)COc1cccc2c1CC(O)C(O)C2 (stereo unspecified)", "Compound NOT metabolized"]
]}

###

- measurement-conditions: human gut metagenome, 24 h, 2 µM

{"columns": ["compound", "Bacterial Biotransformation"],
 "data": [
  ["CC(C)(C)NC(=O)[C@H]1CC[C@H]2[C@@H]3CC[C@H]4NC(=O)C=C[C@]4(C)[C@H]3CC[C@]12C [FINASTERIDE]", "Compound metabolized"],
  ["CC(C)(C)N.CCC[C@H](N[C@@H](C)C(=O)N1[C@H](C(=O)O)C[C@@H]2CCCC[C@@H]21)C(=O)OCC [PERINDOPRIL ERBUMINE]", "Compound metabolized"],
  ["CC(=O)O[C@H]1C(=O)[C@@]2(C)[C@H]([C@H](OC(=O)c3ccccc3)[C@]3(O)C[C@H](OC(=O)[C@H](O)[C@@H](NC(=O)c4ccccc4)c4ccccc4)C(C)=C1C3(C)C)[C@]1(OC(C)=O)CO[C@@H]1C[C@@H]2O [PACLITAXEL]", "Compound NOT metabolized"],
  ["CN1CCN2c3ccccc3Cc3ccccc3C2C1 (configuration not stated) [MIANSERIN]", "Compound NOT metabolized"],
  ["Cc1nc(Nc2ncc(C(=O)Nc3c(C)cccc3Cl)s2)cc(N2CCN(CCO)CC2)n1 [DASATINIB ANHYDROUS]", "Compound NOT metabolized"],
  ["CCN(C(C)=O)c1cccc(-c2ccnc3c(C#N)cnn23)c1 [ZALEPLON]", "Compound metabolized"],
  ["COC(=O)C(c1ccccc1)C1CCCCN1 (configuration not stated) [METHYLPHENIDATE]", "Compound NOT metabolized"]
]}
